Biological target: UniProt P00797
Sequence (P00797 whole entry): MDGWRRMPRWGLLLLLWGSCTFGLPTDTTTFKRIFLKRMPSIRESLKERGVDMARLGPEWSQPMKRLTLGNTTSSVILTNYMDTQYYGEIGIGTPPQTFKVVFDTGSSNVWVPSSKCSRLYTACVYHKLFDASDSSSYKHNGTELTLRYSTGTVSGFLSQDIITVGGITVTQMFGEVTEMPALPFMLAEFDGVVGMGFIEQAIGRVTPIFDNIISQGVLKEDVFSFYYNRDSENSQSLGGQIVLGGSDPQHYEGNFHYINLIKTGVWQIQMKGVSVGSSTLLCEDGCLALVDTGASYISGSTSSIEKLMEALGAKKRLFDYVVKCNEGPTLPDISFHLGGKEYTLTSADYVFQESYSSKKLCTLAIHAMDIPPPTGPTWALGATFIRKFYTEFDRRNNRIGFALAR
Listed below: log10 IC50 values for each entry.
QUANTITY NAME: log10 IC50 (log10 of the value in nM)

COMPOUND	log10 IC50
Cc1ccc(F)c(C)c1Oc1c(C(=O)N2CCNCC2)c2ccncc2n1-c1ccccc1	0.30
Cc1c(F)cccc1Oc1c(C(=O)N2CCNCC2)c2ncccc2n1-c1ccccc1	1.76
Cc1ccc(F)c(C)c1Oc1c(C(=O)N2CCNCC2)c2ncccc2n1-c1ccccc1	0.11
CCC[C@H]1CN(C(=O)c2c(Oc3c(C)cccc3C)n(-c3ccccc3)c3cccnc23)CCN1	3.07
CCOc1cnc2c(C(=O)N3CCNCC3)c(Oc3c(C)cccc3C)n(-c3ccccc3)c2c1	1.90
O=C(c1c(Cc2ccccc2)n(-c2ccccc2)c2cccnc12)N1CCNCC1	2.97
Cc1c(F)cc(F)cc1Oc1c(C(=O)N2CCNCC2)c2ncccc2n1-c1ccccc1	2.03
Cc1cccc(C)c1Oc1c(C(=O)N2CCNCC2)c2ncccc2n1-c1ccccc1	1.15
Cc1ccc(F)cc1Oc1c(C(=O)N2CCNCC2)c2ncccc2n1-c1ccccc1	1.38
Cc1cc(F)cc(C)c1Cc1c(C(=O)N2CCNCC2)c2ncccc2n1-c1ccccc1	2.39
Cc1cccc(C)c1Oc1c(C(=O)N2CCNCC2)c2ccnc(Cl)c2n1-c1ccccc1	2.71
Cc1c(F)cccc1Cc1c(C(=O)N2CCNCC2)c2nc(O)ccc2n1-c1ccccc1	3.20
Cc1cccc(C)c1Sc1c(C(=O)N2CCNCC2)c2ncccc2n1-c1ccccc1	1.79
CCc1nccc2c(C(=O)N3CCNCC3)c(Oc3cc(F)ccc3C)n(-c3ccccc3)c12	2.63
O=C(c1c(Oc2cc(F)ccc2Cl)n(-c2ccccc2)c2cccnc12)N1CCNCC1	1.74
Cc1c(F)cccc1Cc1c(C(=O)N2CCNCC2)c2ccncc2n1-c1ccccc1	1.15
Cc1c(F)cccc1Cc1c(C(=O)N2CCNCC2)c2ncccc2n1-c1ccccc1	1.08
Cc1cccc(C)c1Oc1c(C(=O)N2CCN[C@@H](CO)C2)c2ncccc2n1C1CCCCC1	2.59
O=C(c1c(Cc2ccccc2)n(-c2ccccc2)c2cnccc12)N1CCNCC1	2.88
CCCCC1CN(C(=O)c2c(Oc3c(C)cccc3C)n(-c3ccccc3)c3cccnc23)CCN1 (racemic)	2.45
